System: ATP;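 also: ATP exposure 15 min at 22 °C before imaging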
Assay: switch fluorescence ratio, 500 uM ATP over buffer (Cy3 cluster intensity, sum of 5 cycles each) (fold (ratio)); higher = stronger signal-on switching upon ATP binding; sequences stand for … in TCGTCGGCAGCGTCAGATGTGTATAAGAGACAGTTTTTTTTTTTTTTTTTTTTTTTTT…TC
Settings: aptamer strand: ATP DNA aptamer (quencher-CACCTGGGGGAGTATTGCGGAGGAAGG + anchor), 100 nM annealed; ATP concentration: 500 uM
Outcome measure: switch fluorescence ratio
Answer as a number with no unit attached.

response.value for TGGGAGAGGA (field: switch fluorescence ratio) = 1.02

What the record says about ACTGAGACGA : switch fluorescence ratio is 1.07

Record summary for CATTTGGGGT : reported switch fluorescence ratio = 0.989

Data point: CGTATTTCAG ; switch fluorescence ratio = 0.983

Reported switch fluorescence ratio ( GCCAGCCGAC ) = 1.2

Quick note, switch fluorescence ratio for AATAACTACC landed at 1.15

Just so you know, measured switch fluorescence ratio for GCCACACAAT came out at 1.02

# sequence AACTTCTGCC ; its switch fluorescence ratio = 1.02

Notebook: TAAGGGTGA , switch fluorescence ratio read as 1.03

Value of measured switch fluorescence ratio for the entry ATATCAGGGC : 0.961

Entry GTGGAAGGGG , switch fluorescence ratio reported as 0.988

Recorded result, GGACTTTTTT , switch fluorescence ratio: 1.03

Please fill in: switch fluorescence ratio reported for TCTTTTAGTA = 0.991

Summary for this sequence, CTAAATTTAG : switch fluorescence ratio is 0.995

The reported switch fluorescence ratio of the sequence GTGGGATTCG was 1.01

Just so you know, measured switch fluorescence ratio for AGTCCAAGGC came out at 1.02

In plain terms, GAGTTTTGGC has a documented switch fluorescence ratio of 0.952

// sample CATTTGCGCA , its switch fluorescence ratio was 1.02

// field: switch fluorescence ratio; key: CTCAGTGGTA ; value = 1.01

In plain terms, AATGAAGCTC has a documented switch fluorescence ratio of 0.966

For GATGGAGATA the sequence record lists switch fluorescence ratio as 0.936

# sequence TCGTAGGAGG ; its switch fluorescence ratio = 1.07

// sample CCGCTTTGTT , its switch fluorescence ratio was 1.24

The recorded switch fluorescence ratio for TCGAGGTAGA is 1.01

sequence TGTTTGTGCT , switch fluorescence ratio observed: 0.983

switch fluorescence ratio measured on TGCGGTAGGT = 0.991

// field: switch fluorescence ratio; key: AGGGTTAAGG ; value = 1.02

Field switch fluorescence ratio (entry GAACTTGCCT ) reads 1

Summary for this sequence, CTGTTTAGTC : switch fluorescence ratio is 1.01

The sequence AAAGGAAGGG showed switch fluorescence ratio equal to 0.989

Field switch fluorescence ratio (entry TTTCGATTAC ) reads 1.07

switch fluorescence ratio in this record for TATTAGTTGG : 0.971

The measured switch fluorescence ratio associated with GTTATATAAC reads 1.03

Recorded result, TCCGGCACGT , switch fluorescence ratio: 1.01

# switch fluorescence ratio (sequence: AAGTTTCACG ) is 1

Reported switch fluorescence ratio of GGGCTAATGT : 0.988

Query GATGTACACG yields switch fluorescence ratio of 1.01

Kindly note the recorded switch fluorescence ratio for TATATCAATC , which is 0.991

Looking up ATAGGGGCGC , I see its switch fluorescence ratio listed as 1

In plain terms, GCAGGTGGTG has a documented switch fluorescence ratio of 1.08

Entry CTCAGGTATC ; switch fluorescence ratio = 1.11

The recorded switch fluorescence ratio for ACGTTTGGGG is 0.968

The sequence identified as TAACGCATCT registered its switch fluorescence ratio at 1.15

# credit: the supplement of paper PMC10126150
